molecular target: Rab-like protein 3 (Homo sapiens); also: in the data inactive means no Kd found up to 30 µM
Sequence (Q5HYI8 whole entry): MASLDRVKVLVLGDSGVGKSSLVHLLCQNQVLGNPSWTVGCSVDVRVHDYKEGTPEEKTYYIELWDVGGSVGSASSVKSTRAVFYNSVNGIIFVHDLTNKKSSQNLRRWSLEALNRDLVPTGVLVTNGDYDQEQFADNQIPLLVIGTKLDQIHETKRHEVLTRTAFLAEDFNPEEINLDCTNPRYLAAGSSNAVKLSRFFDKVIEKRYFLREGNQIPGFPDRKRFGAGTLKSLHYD
Activity calls are given as the source filed them.
outcome measure: Kd

The following compounds have reported results that may help.
1. CCCCCCCCCCCCCCCCCCOP(=O)([O-])OC1CC[N+](C)(C)CC1	> 30 µM (inactive)
2. Cn1cc(-c2cnc3ccc4ccc(CS(=O)(=O)NCc5ccccn5)cc4c(=O)c3c2)cn1	> 30 µM (inactive)
3. CO[C@H]1C[C@@H]2CC[C@@H](C)[C@@](O)(O2)C(=O)C(=O)N2CCCC[C@H]2C(=O)O[C@H]([C@H](C)C[C@@H]2CC[C@@H](OP(C)(C)=O)[C@H](OC)C2)CC(=O)[C@H](C)/C=C(\C)[C@@H](O)[C@@H](OC)C(=O)[C@H](C)C[C@H](C)/C=C/C=C/C=C/1C	> 30 µM (inactive)

# batch: return Kd for each of the 3 compounds below
1. Cc1csc(-c2nnc(Nc3ccc(Oc4ncccc4-c4ccnc(N)n4)cc3)c3ccccc23)c1
2. CCn1c(C(=O)N(C2CC2)C2CC2)cc2c3c(ncn3C)c(Nc3cc(C)n(C)n3)nc21
3. C=CC(=O)Nc1cc2c(Nc3ccc(F)c(Cl)c3)ncnc2cc1C#CC(C)(C)N1CCN(C)CC1 [AV-412 FREE BASE]

Result:
["> 30 µM (inactive)", "> 30 µM (inactive)", "> 30 µM (inactive)"]

---

target: Cyclin-dependent kinase 7 (Homo sapiens, UniProt P50613); also: in the data inactive means no Kd found up to 30 µM
Sequence (P50613 whole entry): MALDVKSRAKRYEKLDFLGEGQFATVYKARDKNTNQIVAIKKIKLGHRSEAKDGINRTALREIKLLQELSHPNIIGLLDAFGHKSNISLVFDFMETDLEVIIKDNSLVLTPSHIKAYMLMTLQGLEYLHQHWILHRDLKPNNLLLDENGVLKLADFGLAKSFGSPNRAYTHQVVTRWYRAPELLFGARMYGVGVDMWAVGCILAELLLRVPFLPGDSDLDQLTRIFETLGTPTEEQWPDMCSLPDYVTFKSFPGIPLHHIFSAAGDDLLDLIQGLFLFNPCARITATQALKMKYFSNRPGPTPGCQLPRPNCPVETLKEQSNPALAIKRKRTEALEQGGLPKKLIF
Activity calls are given as the source filed them.
In this exercise, the only acceptable responses are Y for active, N for inactive

// below: answered compounds
1. FC(F)(F)c1ccc(/C=C/c2nc(COc3ccc(CCCCn4ccnn4)cc3)co2)cc1	N
2. O=C(Nc1nc2cccc(-c3ccc(CN4CCS(=O)(=O)CC4)cc3)n2n1)C1CC1	N

Q: // param item: "CN(C[C@@H]1COCCO1)S(=O)(=O)Nc1ccc2ccc3ncc(-c4cnn(C)c4)cc3c(=O)c2c1" ; yields the recorded call
Result: N

Q: // param item: "Cn1cnc2c(F)c(Nc3ccc(Br)cc3F)c(C(=O)NOCCO)cc21" ; yields the recorded call
Result: N

Q: // param item: "CCOc1cc2ncc(C#N)c(Nc3ccc(F)c(Cl)c3)c2cc1NC(=O)/C=C/CN(C)C" ; yields the recorded call
Result: N

---

target: Cyclin-dependent kinase 4 (Homo sapiens, UniProt P11802); also: in the data inactive means no Kd found up to 30 µM
Sequence (P11802 whole entry): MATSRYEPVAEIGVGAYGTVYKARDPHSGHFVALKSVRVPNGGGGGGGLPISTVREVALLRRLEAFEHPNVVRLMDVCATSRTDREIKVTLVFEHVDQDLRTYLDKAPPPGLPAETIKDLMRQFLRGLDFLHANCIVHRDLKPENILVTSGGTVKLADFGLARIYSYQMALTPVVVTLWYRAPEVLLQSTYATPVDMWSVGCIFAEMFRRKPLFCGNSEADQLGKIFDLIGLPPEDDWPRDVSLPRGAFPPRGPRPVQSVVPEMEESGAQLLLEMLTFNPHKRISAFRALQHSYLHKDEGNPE
Calls of active or inactive are those of the source.
In this exercise, the only acceptable responses are Yes (active), No (inactive)

// below: answered compounds
1. Cn1cnc2c(F)c(Nc3ccc(Br)cc3F)c(C(=O)NOCCO)cc21	No
2. CN1C/C=C/CCOc2cccc(c2)-c2ccnc(n2)Nc2cccc(c2)C1	No
3. C[C@H]1CNCCCN1S(=O)(=O)c1cccc2cncc(F)c12	No

Q: // param item: "Cc1cnc(NC(=O)Nc2cc(Br)c(C)cc2OC[C@@H]2CNCCO2)cn1" ; yields the recorded call
Result: No

Q: // param item: "CCCCCCCCCCCCCCCCCCOP(=O)([O-])OC1CC[N+](C)(C)CC1" ; yields the recorded call
Result: No

Q: // param item: "CO[C@H]1C[C@@H]2CC[C@@H](C)[C@@](O)(O2)C(=O)C(=O)N2CCCC[C@H]2C(=O)O[C@H]([C@H](C)C[C@@H]2CC[C@@H](O)[C@H](OC)C2)CC(=O)[C@H](C)/C=C(\C)[C@@H](O)[C@@H](OC)C(=O)[C@H](C)C[C@H](C)/C=C/C=C/C=C/1C" ; yields the recorded call
Result: No

Q: // param item: "Cn1cc(-c2cnn3c(N)c(Br)c([C@@H]4CCCNC4)nc23)cn1" ; yields the recorded call
Result: No

Q: // param item: "Cc1cccc(-c2nn3c(c2-c2ccnc4ccc(C(N)=O)cc24)CCC3)n1" ; yields the recorded call
Result: No

Q: // param item: "CCn1c(C(=O)N(C2CC2)C2CC2)cc2c3c(ncn3C)c(Nc3cc(C)n(C)n3)nc21" ; yields the recorded call
Result: No

Q: // param item: O=c1[nH]ccc2cc(OC3CCNCC3)ccc12 [SAR-407899 FREE BASE] ; yields the recorded call
Result: No

Q: // param item: "Cn1ncc(Cl)c1-c1cc(C(=O)N[C@H](CN)Cc2ccc(F)c(F)c2)oc1Cl" ; yields the recorded call
Result: No

Q: // param item: "C#Cc1cccc(Nc2ncnc3cc(OC)c(OCCCCCCC(=O)NO)cc23)c1" ; yields the recorded call
Result: No

Q: // param item: "O=C(Nc1c[nH]nc1-c1nc2cc(CN3CCOCC3)ccc2[nH]1)NC1CC1" ; yields the recorded call
Result: Yes

Q: // param item: "COc1ccc(S(=O)(=O)N(C(C)=O)c2ccccc2/C=C/c2cc[n+]([O-])cc2)cc1" ; yields the recorded call
Result: No

Q: // param item: O=C1NC(=O)[C@@H](c2cn3c4c(cccc24)CCC3)[C@@H]1c1c[nH]c2ccccc12 [TIVANTINIB] ; yields the recorded call
Result: No

Q: // param item: "Cc1csc(-c2nnc(Nc3ccc(Oc4ncccc4-c4ccnc(N)n4)cc3)c3ccccc23)c1" ; yields the recorded call
Result: No
